# key: entry, value: activity coefficient
assay: activity coefficient (dimensionless); of the first substance listed, at infinite dilution; xn = mol fraction of the nth substance listed; conditions: 388.15 K; 101 kPa; Liquid; Chromatography; x1 = 0
// keep it numeric: no unit symbol after the value

Known activity coefficient results, listed for orientation:
molecule	metric_name	test_result
C[C@@H]1CCCC[C@H]1C [trans-1,2-dimethylcyclohexane] + CCCCCCCCCCCCCCCCCCC(CCCCCCCCCCCCCCCCCC)CCCCC(CCCCCCCCCCCCCCCCCC)CCCCCCCCCCCCCCCCCC	activity coefficient	0.287
C=CCCCCCCC [1-nonene] + CCCCCCCCCCCCCCCCCCC(CCCCCCCCCCCCCCCCCC)CCCCC(CCCCCCCCCCCCCCCCCC)CCCCCCCCCCCCCCCCCC	activity coefficient	0.394
C=CCCCCC [1-heptene] + CCCCCCCCCCCCCCCCCCC(CCCCCCCCCCCCCCCCCC)CCCCC(CCCCCCCCCCCCCCCCCC)CCCCCCCCCCCCCCCCCC	activity coefficient	0.355
c1ccc2ccccc2c1 [naphthalene] + CCCCCCCCCCCCCCCCCCC(CCCCCCCCCCCCCCCCCC)CCCCC(CCCCCCCCCCCCCCCCCC)CCCCCCCCCCCCCCCCCC	activity coefficient	0.397
CCCCCCc1ccccc1 [hexylbenzene] + CCCCCCCCCCCCCCCCCCC(CCCCCCCCCCCCCCCCCC)CCCCC(CCCCCCCCCCCCCCCCCC)CCCCCCCCCCCCCCCCCC	activity coefficient	0.405

Consider CCCCCCCCC [nonane] + CCCCCCCCCCCCCCCCCCC(CCCCCCCCCCCCCCCCCC)CCCCC(CCCCCCCCCCCCCCCCCC)CCCCCCCCCCCCCCCCCC . Its measured activity coefficient is 0.401

Consider C=CCCCC [hex-1-ene] + CCCCCCCCCCCCCCCCCCC(CCCCCCCCCCCCCCCCCC)CCCCC(CCCCCCCCCCCCCCCCCC)CCCCCCCCCCCCCCCCCC . Its measured activity coefficient is 0.355

Consider CCCCc1ccccc1 [butylbenzene] + CCCCCCCCCCCCCCCCCCC(CCCCCCCCCCCCCCCCCC)CCCCC(CCCCCCCCCCCCCCCCCC)CCCCCCCCCCCCCCCCCC . Its measured activity coefficient is 0.362

Consider CCCCCCCCCCCCC [tridecane] + CCCCCCCCCCCCCCCCCCC(CCCCCCCCCCCCCCCCCC)CCCCC(CCCCCCCCCCCCCCCCCC)CCCCCCCCCCCCCCCCCC . Its measured activity coefficient is 0.479

----------
assay: activity coefficient (dimensionless); of the first substance listed, at infinite dilution; xn = mol fraction of the nth substance listed; conditions: 418.15 K; 101 kPa; Liquid; Chromatography; x1 = 0
Returns class 1 if the recorded activity coefficient is greater than or equal to 0.4, and class 0 otherwise.

molecule	answer_label
C#CCCCCCCC [1-nonyne] + CCCCCCCCCCCCCCCCCCC(CCCCCCCCCCCCCCCCCC)CCCCC(CCCCCCCCCCCCCCCCCC)CCCCCCCCCCCCCCCCCC	class 1
C1CCC2CCCC2C1 (stereo unspecified) [1H-indene, octahydro-] + CCCCCCCCCCCCCCCCCCC(CCCCCCCCCCCCCCCCCC)CCCCC(CCCCCCCCCCCCCCCCCC)CCCCCCCCCCCCCCCCCC	class 0
CC(C)C(C)(C)C [2,2,3-trimethylbutane] + CCCCCCCCCCCCCCCCCCC(CCCCCCCCCCCCCCCCCC)CCCCC(CCCCCCCCCCCCCCCCCC)CCCCCCCCCCCCCCCCCC	class 0
C=CCCCCCCCC [1-decene] + CCCCCCCCCCCCCCCCCCC(CCCCCCCCCCCCCCCCCC)CCCCC(CCCCCCCCCCCCCCCCCC)CCCCCCCCCCCCCCCCCC	class 1

Now turn to the next molecule.
Exercise: Say whether CC(C)C(C)C(C)C [2,3,4-trimethylpentane] + CCCCCCCCCCCCCCCCCCC(CCCCCCCCCCCCCCCCCC)CCCCC(CCCCCCCCCCCCCCCCCC)CCCCCCCCCCCCCCCCCC shows activity coefficient of 0.4 or more.
Key: class 0
